measured_quantity: melting point (°C)

[A] CC(=O)S[C@@H]1CC2=CC(=O)CC[C@]2(C)[C@H]2CC[C@@]3(C)[C@@H](CC[C@@]34CCC(=O)O4)[C@H]12 [spironolactone]
[B] CCCCOB(OCCCC)OCCCC [Tributyl borate]
Min melting point? A | B Your choice should be expressed through its label.
B

[a] COC(=O)c1c(Cl)c(Cl)c(C(=O)OC)c(Cl)c1Cl [dimethyl tetrachloroterephthalate]
[b] CCCCCCCCCCCCSc1cc(N(NC(=O)OC(C)(C)C)C(=O)OC(C)(C)C)cc(SCCCCCCCCCCCC)c1SCCCCCCCCCCCC
[c] CCCCCCCCCCCCCCCCC1CO1 (stereo not drawn)
Sort the 3 molecules by melting point; largest first, smallest last. Response format: the labels, sorted as the prompt asks.
a, b, c
(a: 157 °C, b: 50 °C, c: 26 °C)

----------
measured_quantity: melting point (°C)

molecule	melting point / °C
Cc1ccc(N)cc1[N+](=O)[O-]	77
ClCCOCCCl	-47
Cc1ccccc1OP(=O)(Oc1ccccc1C)Oc1ccccc1C [Tris(2-methylphenyl) phosphate]	-33

[a] CN(C)CCC=C1c2ccccc2COc2ccccc21 [Doxepin]
[b] CC[SiH](CC)CC
// which entry has the larger melting point value, a or b ? Returns: label corresponding to the selected item.
a

[1] Cc1cc(C(=O)O)no1
[2] COC(=O)c1ncoc1C(=O)OC [dimethyl oxazole-4,5-dicarboxylate]
Sorting by melting point in descending order, would 1 or 2 appear first? Record your answer as the label of the chosen record.
1

----------
measured_quantity: melting point (°C)

compound	readout_units	melting point
c1ccc2c(c1)Cc1ccccc1C2 [9,10-Dihydroanthracene]	°C	109
O=C(O)c1cc(I)cc(I)c1I [2,3,5-triiodobenzoic acid]	°C	221
CN(C)c1ccc(/N=N/c2ccc(N=C=S)cc2)cc1 [4-dimethylaminoazobenzene-4'-isothiocyanate]	°C	170
C=CCNC(N)=S [N-allylthiourea]	°C	74
CCCCOCC [1-Ethoxybutane]	°C	-103
Cc1c(C)n(C(N)=O)c2ccccc12 [2,3-dimethyl-1H-indole-1-carboxamide]	°C	188
CCC1OC(=O)C(C)C(OC2CC(C)(OC)C(O)C(C)O2)C(C)C(OC2OC(C)CC(N(C)C)C2O)C(C)(O)CC(C)C(=O)C(C)C(O)C1(C)O (stereo not drawn) [erythromycin]	°C	135
C=C(Br)CC1(C(C)CC)C(=O)NC(=O)NC1=O (stereo not drawn) [butallylonal]	°C	132

[P] O=C(CCCN1CCC(O)(c2ccc(Cl)cc2)CC1)c1ccc(F)cc1 [Haloperidol]
[Q] Cc1ccc(C(=O)c2ccccc2)cc1 [4-Methylbenzophenone]
[R] Nc1ccc(CO)cc1 [p-amino_benzyl_alcohol]
[S] O=C(c1ccc(F)cc1)c1ccccc1F [2,4'-difluorobenzophenone]
Hey, can you sort those compounds up there by melting point, smallest first? Write the labels, ordered according to the request.
S, Q, R, P

[a] OB(O)c1ccc(F)cc1C(F)(F)F [4-fluoro-2-(trifluoromethyl)benzeneboronic acid]
[b] NS(N)(=O)=O [sulfamide]
[c] CN1CCCC1=O [1-Methylpyrrolidin-2-one]
Endpoint returns the given compounds ordered by ascending melting point. Could you list the labels in the order requested?
c, b, a

----------
measured_quantity: melting point (°C)

molecule	melting point, °C
O=Cc1ccc(-c2ccccc2)cc1	60
Cc1cccc(C)c1	-47
C=CCc1ccccc1O	-6

[a] CCOC(=O)/C=C/c1ccccc1 [Ethyl (2E)-3-phenylacrylate]
[b] CC(C)(C)C1CCC(=O)CC1
Please tell me which of the two, a or b , has the higher reported melting point value. Label of pick, please.
b

[1] N#Cc1cncnc1N
[2] O=C(Nc1ccccc1)OC1CCCCCC1OC(=O)Nc1ccccc1 (stereo unspecified) [cycloheptane-1,2-diyl bis(phenylcarbamate)]
[3] N#CCc1ccccc1[N+](=O)[O-] [(2-Nitrophenyl)acetonitrile]
[4] Brc1cccc2ccccc12
Let's sort these by melting point, smallest first. Go ahead? Form entry: ranked labels (order as requested).
4, 3, 2, 1

[1] O=C(O)c1ccccc1C(=O)O [Phthalic Acid]
[2] COc1cc(CNC(=O)CCCC/C=C/C(C)C)ccc1O [(6E)-N-(4-Hydroxy-3-methoxybenzyl)-8-methylnon-6-enamide]
[3] CCCNC(=O)NS(=O)(=O)c1ccc(Cl)cc1 [chlorpropamide]
Sort ascending by melting point. The response must list the labels following the requested ordering.
2, 3, 1

----------
measured_quantity: melting point (°C)

Consider the following illustrative entries.
compound	readout_value
O=C(O)c1ccccc1O [Salicylic acid]	161
S=C=Nc1ccc(I)cc1 [4-iodophenyl isothiocyanate]	76
CC(C)(C)C(=O)Nc1ccncc1	136
COC(=O)[C@]1(C(=O)O)[C@@H]2CCC[C@@H]21	137
ClC1C(Cl)C(Cl)C(Cl)C(Cl)C1Cl (stereo not drawn) [alpha-hexachlorocyclohexane]	160

[A] COC(=O)C1=C(C)NC(C)=C(C(=O)OC)C1c1ccccc1[N+](=O)[O-]
[B] c1ccc(-c2csc(-c3cccnc3)n2)cc1
[C] CCCCCCCCCCc1ccccc1 [Decylbenzene]
Sequence the entries by melting point, beginning with the highest number. Give the order by naming the labels one after another as requested.
A, B, C
(A: 173 °C, B: 54 °C, C: -14 °C)

----------
measured_quantity: melting point (°C)

A selection of reference data follows.
molecule	readout_units	readout_value
NC(=O)NO [Hydroxyurea]	°C	144
C1CCCCCCCCCCCCCC1 [cyclopentadecane]	°C	62
CCOC(=O)c1ccc(N)cc1 [ethyl 4-aminobenzoate]	°C	89
COc1ccccc1B(O)O [2-methoxybenzeneboronic acid]	°C	104
CC(=O)CC(C)=O [2,4-pentanedione]	°C	-23

[I] COc1ccc(C(O)C(=O)O)cc1 (stereo not drawn) [4-methoxymandelic acid]
[II] CCCCCCC(C)C [2-methyloctane]
I'd appreciate it if you could identify which of I and II has the greater melting point. Returns: label corresponding to the selected item.
I

----------
measured_quantity: melting point (°C)

compound	measured_quantity	readout_value
O=Cc1ccc(Cl)cc1 [p-chlorobenzaldehyde]	melting point	46

[a] CC(Oc1c(Cl)cccc1Cl)C1=NCCN1 (stereo not drawn)
[b] Oc1c(Br)c(Br)c(O)c(Br)c1Br [tetrabromohydroquinone]
[c] C#CCCCCCCCC [Dec-1-yne]
[d] CCOC(=O)C(=O)C(=O)OCC [diethyl ketomalonate]
[e] Cc1ccc(S(=O)(=O)NC2CCCCC2)cc1 [N-Cyclohexyl-4-methylbenzenesulfonamide]
Would you mind ranking these compounds by ascending melting point? Please express your ranking as an ordered list of the labels.
d, c, e, a, b
(d: -70 °C, c: -44 °C, e: 84.5 °C, a: 126 °C, b: 244 °C)

[1] Clc1cc(-c2ccccn2)nc(-c2ccccn2)c1
[2] CCCOC(C)=O [Propyl Acetate]
I'm curious whether 1 or 2 has the smaller melting point number. Which is it? Return value: the label identifying the chosen record.
2

[I] NC(=S)c1ccccc1 [thiobenzamide]
[II] C[SiH](C)O[Si](O[SiH](C)C)(O[SiH](C)C)O[SiH](C)C
Quick check, higher melting point between I and II ? The response must carry the label of the picked entry.
I

----------
measured_quantity: melting point (°C)

Please review the following examples before continuing.
compound	melting point [°C]
OCC#CCO [But-2-yne-1,4-diol]	57
CCCCCCC(O)CO (stereo unspecified)	31
Cc1ccc2oc(-c3cccc(O)c3)cc(=O)c2c1 [3'-hydroxy-6-methylflavone]	205
Cc1ccc(S(=O)(=O)CCO)cc1	52
N#CSCSC#N [Methylene bis(thiocyanate)]	106

[I] Cc1cccc(C)c1C [1,2,3-trimethylbenzene]
[II] CCCCC(C)=O
Could you point out whether the larger melting point belongs to I or to II ? Kindly give the label for the entry you pick.
I

----------
measured_quantity: melting point (°C)

Look over these answered cases.
molecule	readout_value
O[C@@H]1[C@H](O)[C@@H](O)OC[C@H]1O	112
N#Cc1c(Cl)cccc1Cl	144
CCN(CC)c1ccccc1 [n,n-diethylaniline]	-38
c1ccc2c(c1)sc1ccccc12	99
O=C(O)CCc1cccc(Br)c1	64

[I] C [Methane]
[II] CC1C(=O)CCCC1=O
[III] CN(C)c1ccc(C=O)cc1
[IV] OCCc1ccccc1
// ranking: key=melting point, reverse=True Could you list the labels in the order requested?
II, III, IV, I
(II: 206 °C, III: 74 °C, IV: -27 °C, I: -182 °C)

----------
measured_quantity: melting point (°C)

compound	measured_quantity	readout_units	readout_value
OC/C=C/c1ccccc1	melting point	°C	34

[1] COc1cc(Cl)nc(OC)n1
[2] O=C1CCC(N2C(=O)c3ccccc3C2=O)C(=O)N1 (stereo not given) [Thalidomide]
[3] Cc1ccc(C)c(CC(=O)O)c1
[4] COc1ccc(N)c(OC)c1
Sort ascending by melting point. Answer by writing out the labels in the requested order.
4, 1, 3, 2
(4: 35 °C, 1: 72 °C, 3: 128 °C, 2: 270 °C)

The measured values listed here are drawn from the Bradley open melting point set (2014).
